System: mouse splenocytes
PROTOCOL_SUMMARY: Inhibition of B Cell Activation as Measured by CD69 Expression in Mouse Splenocytes
Type: cell-based
EXPERIMENTAL_CONDITIONS: Splenocyte; C57/BL6 splenocytes, 3 ug/mL goat anti-mouse IgM, 18-20 hrs, CD69+ve cells within CD19; read-out: Mouse spleenocyte IC50
Entries whose IC50 is below 10 nM take MET; entries at or above 10 nM take NOT MET.

Example cases with answers are listed next.
1. Cc1c(-c2ncnc3[nH]c(-c4ccc(C(=O)N5CCC(O)CC5)cc4)cc23)cccc1-n1ncc2cc(C3CC3)ccc2c1=O :: NOT MET
2. CC(O)C(=O)N1CC=C(c2cc3c(-c4cccc(N5CCOc6cc(C7CC7)cc(F)c6C5=O)c4CO)ccnc3[nH]2)CC1 (centres unmarked) :: MET
3. CC(=O)N1CC=C(c2cc3c(-c4cccc(N5CCOc6cc(C7CC7)cc(F)c6C5=O)c4CO)ccnc3[nH]2)CC1 :: NOT MET
4. Cc1c(-c2ncnc3[nH]c(-c4ccc(C(=O)N5CCNCC5)cc4)cc23)cccc1N1CCOc2cc(C3CC3)ccc2C1=O :: NOT MET

Could you now consider this next molecule?
Threshold test, IC50 < 10 nM: CS(=O)(=O)N1CCN(Cc2ccc(-c3cc4c(-c5cccc(N6CCOc7cc(C8CC8)ccc7C6=O)c5CO)ccnc4[nH]3)nc2)CC1
NOT MET
